- Tested on: M14 melanoma
- ASSAY INFO: NCI tumour cell line growth inhibition, 48 h
METRIC NAME: GI50

Enquiry: Look at this compound and give its reported GI50. ClCc1ccc(-c2ccc(Cn3cnc4nc(Cl)nc(Cl)c43)cc2)cc1
Return: 18700 nM

Enquiry: Also COc1cc(NCCCCCN=C(N)N)c2ncccc2c1 ?
Return: 17700 nM

Enquiry: Also CCOC(=O)N1C/C(=C/c2ccc(F)cc2)C(=O)/C(=C/c2ccc(F)cc2)C1 ?
Return: 2070 nM

Enquiry: Also CN1CCN(CCCOc2ccc3nc(Nc4cc(Cl)cc(Cl)c4)ccc3c2)CC1 ?
Return: 1500 nM

Enquiry: Also [Cl-].[Cl-].[Cl-].[O-]c1cccc2cccnc12.[O-]c1cccc2cccnc12.[O]=[Mo] ?
Return: 1810 nM

Enquiry: Also CCn1cc(C(=O)O)c(=O)c2cc(F)c(N3CCN(S(=O)(=O)c4ccc(Cl)cc4)CC3)cc21 ?
Return: 2850 nM

Enquiry: Also FC(F)(F)c1nnn[n-]1.[Au+].c1ccc([PH+](c2ccccc2)c2ccccc2)cc1 ?
Return: 1780 nM
